# MEASURED TARGET: human TRPA1 (Homo sapiens (Human))
# EXPERIMENT SUMMARY: hTRPA1 CHO Ca2+ AUC EVO (IC50); FLIPR Tetra block of cinnamaldehyde induced calcium influx
# Type: cell-based
# EXPERIMENTAL SETUP: Table 3; CHO cells expressing TRPA1, 75 uM cinnamaldehyde agonist
MEASURE NAME: IC50 (nM)

Would you please look over these solved cases?
Prompt: Entry CC1(C(=O)NCc2cn(-c3ccc(C(F)(F)F)nc3)nc2Cl)CCCC1S(=O)(=O)c1ccc(F)cc1 (single isomer, unassigned; enantiomer 2) [Example 32] : reported IC50 = ?
Completion: 85.7

Prompt: Consider the compound shown here: "COc1nn(-c2ccc(C(F)(F)F)nc2)cc1CC(=O)N[C@@H]1CC[C@@H]1S(=O)(=O)c1ccc(F)cc1" What is its recorded IC50?
Completion: 18.5

Prompt: Need IC50 of "O=C(NCc1cn(-c2ccc(C(F)(F)F)cc2)nc1Cl)[C@@H]1CC[C@@H]1S(=O)(=O)c1ccc(F)cc1" , thanks.
Completion: 19.4

Prompt: # query: IC50 of entry "COc1nn(-c2ccc(C(F)(F)F)nc2)cc1CNC(=O)[C@@H]1CCC[C@@H]1S(=O)(=O)c1ccc(F)cc1"
Completion: 159

1 = O=C(Cc1cn(-c2cnc(C(F)(F)F)nc2)nc1C(F)F)N[C@@H]1CC[C@@H]1S(=O)(=O)c1ccc(F)cc1
2 = COc1nn(-c2ccc(C(F)(F)F)nc2)cc1CNC(=O)C1(C)CCCC1S(=O)(=O)c1ccc(F)cc1 (single isomer, unassigned; enantiomer 2) [Example 35]
Prompt: Sorting ascending by IC50, which comes first: 1 or 2 ? Field: selected label. Fill in the label of the entry you choose.
Completion: 1

* * *

# MEASURED TARGET: human TRPA1 (Homo sapiens (Human), UniProt O75762)
# Sequence (O75762 whole entry): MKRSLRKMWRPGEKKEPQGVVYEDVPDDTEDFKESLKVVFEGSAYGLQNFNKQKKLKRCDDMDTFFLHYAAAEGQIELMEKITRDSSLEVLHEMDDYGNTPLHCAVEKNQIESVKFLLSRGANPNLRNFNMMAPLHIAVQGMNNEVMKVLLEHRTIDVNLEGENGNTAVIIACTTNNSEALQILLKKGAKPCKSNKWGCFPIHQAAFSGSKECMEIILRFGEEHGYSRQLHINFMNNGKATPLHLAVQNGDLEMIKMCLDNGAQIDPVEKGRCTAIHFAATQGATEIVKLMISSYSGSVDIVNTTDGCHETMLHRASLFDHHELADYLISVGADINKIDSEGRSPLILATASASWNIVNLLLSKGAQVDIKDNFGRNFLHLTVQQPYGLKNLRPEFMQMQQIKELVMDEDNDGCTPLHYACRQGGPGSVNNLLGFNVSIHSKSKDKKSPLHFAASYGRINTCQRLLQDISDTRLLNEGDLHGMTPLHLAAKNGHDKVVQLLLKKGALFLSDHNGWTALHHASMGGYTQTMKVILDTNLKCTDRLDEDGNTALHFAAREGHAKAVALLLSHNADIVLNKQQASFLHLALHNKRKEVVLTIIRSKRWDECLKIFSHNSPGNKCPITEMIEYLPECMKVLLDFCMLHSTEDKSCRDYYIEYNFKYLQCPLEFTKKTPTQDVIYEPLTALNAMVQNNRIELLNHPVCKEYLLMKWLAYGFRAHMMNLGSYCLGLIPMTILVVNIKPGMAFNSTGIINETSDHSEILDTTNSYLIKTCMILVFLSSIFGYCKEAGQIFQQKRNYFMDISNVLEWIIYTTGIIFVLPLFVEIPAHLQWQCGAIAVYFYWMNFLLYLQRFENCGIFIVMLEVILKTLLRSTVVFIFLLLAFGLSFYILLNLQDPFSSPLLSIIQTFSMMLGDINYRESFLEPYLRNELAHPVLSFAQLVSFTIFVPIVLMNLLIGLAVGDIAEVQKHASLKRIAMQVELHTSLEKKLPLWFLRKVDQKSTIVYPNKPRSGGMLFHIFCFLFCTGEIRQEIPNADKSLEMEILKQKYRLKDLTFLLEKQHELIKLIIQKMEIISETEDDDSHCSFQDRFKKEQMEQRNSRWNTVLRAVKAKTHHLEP
# EXPERIMENT SUMMARY: hTRPA1 CHO Ca2+ AUC EVO (IC50); FLIPR Tetra block of cinnamaldehyde induced calcium influx
# Assay type: cell-based
# EXPERIMENTAL SETUP: Table 3; CHO cells expressing TRPA1, 75 uM cinnamaldehyde agonist
# Method: IC50 values ([…]) of compounds on the human and rat TRPA1 channels were determined using a FLIPR Tetra instrument. CHO cells expressing TRPA1 were plated into 384-well plates, incubated overnight at 37 C, and loaded with BD calcium indicator dye for 1 hr at 37° C. followed by 15 minutes. at room temperature. The assay buffer was Hank's Balanced Salt Solution (HBSS) containing 20 mM HEPES (pH readjusted to 7.4) along with 0.02% BSA. […]
MEASURE NAME: IC50 (nM)

Prompt: Request the reported IC50 associated with O=C(NCc1cn(-c2ccc(C(F)(F)F)cc2)nc1Cl)[C@@H]1CCC[C@@H]1S(=O)(=O)c1ccc(F)cc1 [Example 43]
Completion: 38.9

Prompt: Quick one: IC50 for O=C(NCc1cn(-c2ccc(C(F)(F)F)cc2)nc1Cl)C1CCC1S(=O)(=O)c1ccc(F)cc1 (single isomer, unassigned; enantiomer 3) [Example 30] ?
Completion: 56.7

Prompt: # input molecule: O=C(NCc1cn(-c2ccc(C(F)(F)F)nc2)nc1C(F)(F)F)[C@@H]1CCC[C@@H]1S(=O)(=O)c1ccc(F)cc1 [Example 41] ; wanted: its IC50
Completion: 40.4

Prompt: So what's the measured IC50 for this one? CC1(C(=O)NCc2cn(-c3ccc(C(F)(F)F)cc3)nc2Cl)CCCC1S(=O)(=O)c1ccc(F)cc1 (single isomer, unassigned; enantiomer 2) [Example 37]
Completion: 23.9

Prompt: // IC50 lookup, key: O=C(NCc1cc(-c2ccc(C(F)(F)F)cc2)ncn1)[C@@H]1CC[C@@H]1S(=O)(=O)c1ccc(F)cc1 [Example 27]
Completion: 113

Prompt: Reported IC50, molecule CC1(C(=O)NCc2cn(-c3ccc(C(F)(F)F)cc3)nc2Cl)CCCC1S(=O)(=O)c1ccc(F)cc1 (single isomer, unassigned; enantiomer 1) [Example 5] : ____
Completion: 8.79

a = COc1nn(-c2ccc(C(F)(F)F)nc2)cc1CC(=O)NC1CCC1S(=O)(=O)c1ccc(F)cc1 (single isomer, unassigned; enantiomer 2) [Example 12]
b = COc1nn(-c2ccc(C(F)(F)F)nc2)cc1CNC(=O)C1(C)CCCC1S(=O)(=O)c1ccc(F)cc1 (single isomer, unassigned; enantiomer 3) [Example 36]
Prompt: Please state the entry with greater IC50 among a and b . Choose, then provide that item's label.
Completion: a

P = O=C(NCc1cn(-c2ccc(C(F)(F)F)nc2)nc1C(F)(F)F)[C@@H]1CC[C@@H]1S(=O)(=O)c1ccc(F)cc1 [Example 24]
Q = O=C(Cc1cn(-c2cnc(C(F)(F)F)nc2)nc1C(F)(F)F)N[C@@H]1CC[C@@H]1[S+]([O-])c1ccc(F)cc1 (some centres unmarked) [Example 2]
Prompt: Hello, I am sorting some records. Could you say if P or Q has the smaller IC50 value? Your answer should be the label attached to the chosen record.
Completion: P
(P: 41.5 nM, Q: 500 nM)
